From: ChEMBL document CHEMBL3259810

Parameter inhibition: see the listing below.
- TESTED_TARGET: Nuclear factor NF-kappa-B complex (Homo sapiens) (UniProt Q00653+P19838+Q04206)
- Sequence (P19838 whole entry, looked up): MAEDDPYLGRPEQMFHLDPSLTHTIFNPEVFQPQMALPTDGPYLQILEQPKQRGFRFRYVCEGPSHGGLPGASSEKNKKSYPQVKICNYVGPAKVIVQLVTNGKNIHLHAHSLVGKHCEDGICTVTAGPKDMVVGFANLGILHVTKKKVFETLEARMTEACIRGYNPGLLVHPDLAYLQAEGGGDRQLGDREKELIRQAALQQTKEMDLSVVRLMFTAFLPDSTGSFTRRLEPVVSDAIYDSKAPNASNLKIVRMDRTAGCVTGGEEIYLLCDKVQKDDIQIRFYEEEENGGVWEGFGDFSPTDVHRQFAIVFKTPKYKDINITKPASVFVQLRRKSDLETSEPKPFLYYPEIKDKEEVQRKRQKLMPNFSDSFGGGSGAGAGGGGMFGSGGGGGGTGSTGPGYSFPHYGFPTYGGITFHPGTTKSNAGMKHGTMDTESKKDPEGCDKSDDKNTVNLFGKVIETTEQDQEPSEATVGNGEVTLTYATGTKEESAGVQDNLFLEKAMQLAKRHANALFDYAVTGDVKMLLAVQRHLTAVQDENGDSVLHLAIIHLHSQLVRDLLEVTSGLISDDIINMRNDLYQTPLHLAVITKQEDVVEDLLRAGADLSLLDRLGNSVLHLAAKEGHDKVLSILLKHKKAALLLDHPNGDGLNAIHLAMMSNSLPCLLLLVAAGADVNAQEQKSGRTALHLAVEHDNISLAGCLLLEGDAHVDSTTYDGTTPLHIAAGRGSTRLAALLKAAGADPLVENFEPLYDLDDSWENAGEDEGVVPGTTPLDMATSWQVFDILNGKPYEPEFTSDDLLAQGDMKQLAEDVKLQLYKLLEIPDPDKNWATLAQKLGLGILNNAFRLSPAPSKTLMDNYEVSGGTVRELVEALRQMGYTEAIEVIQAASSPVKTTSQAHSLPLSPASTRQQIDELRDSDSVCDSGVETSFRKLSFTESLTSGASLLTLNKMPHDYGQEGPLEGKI
- Sequence (Q00653 whole entry, looked up): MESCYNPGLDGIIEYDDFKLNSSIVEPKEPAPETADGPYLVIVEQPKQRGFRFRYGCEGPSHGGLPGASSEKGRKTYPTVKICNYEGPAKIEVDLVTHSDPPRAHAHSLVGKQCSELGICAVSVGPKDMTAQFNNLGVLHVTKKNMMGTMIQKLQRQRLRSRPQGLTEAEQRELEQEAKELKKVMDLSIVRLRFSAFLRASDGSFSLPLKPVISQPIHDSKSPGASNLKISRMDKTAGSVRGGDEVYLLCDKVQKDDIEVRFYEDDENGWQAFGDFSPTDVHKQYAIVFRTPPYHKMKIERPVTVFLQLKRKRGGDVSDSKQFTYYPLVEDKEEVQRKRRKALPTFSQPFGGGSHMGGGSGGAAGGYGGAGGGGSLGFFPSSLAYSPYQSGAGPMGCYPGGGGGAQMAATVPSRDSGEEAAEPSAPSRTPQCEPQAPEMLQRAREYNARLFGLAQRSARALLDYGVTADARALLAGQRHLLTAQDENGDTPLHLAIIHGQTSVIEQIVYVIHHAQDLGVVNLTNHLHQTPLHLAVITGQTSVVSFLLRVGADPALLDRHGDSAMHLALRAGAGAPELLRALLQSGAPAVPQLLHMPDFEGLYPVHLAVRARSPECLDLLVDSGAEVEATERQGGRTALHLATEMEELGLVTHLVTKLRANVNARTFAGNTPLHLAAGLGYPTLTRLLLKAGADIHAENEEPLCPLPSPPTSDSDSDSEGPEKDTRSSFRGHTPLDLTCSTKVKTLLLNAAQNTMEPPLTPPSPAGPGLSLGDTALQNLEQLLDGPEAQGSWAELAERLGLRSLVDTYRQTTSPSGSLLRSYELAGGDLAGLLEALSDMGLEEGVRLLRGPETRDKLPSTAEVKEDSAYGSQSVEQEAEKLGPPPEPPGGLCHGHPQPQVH
- Sequence (Q04206 whole entry, looked up): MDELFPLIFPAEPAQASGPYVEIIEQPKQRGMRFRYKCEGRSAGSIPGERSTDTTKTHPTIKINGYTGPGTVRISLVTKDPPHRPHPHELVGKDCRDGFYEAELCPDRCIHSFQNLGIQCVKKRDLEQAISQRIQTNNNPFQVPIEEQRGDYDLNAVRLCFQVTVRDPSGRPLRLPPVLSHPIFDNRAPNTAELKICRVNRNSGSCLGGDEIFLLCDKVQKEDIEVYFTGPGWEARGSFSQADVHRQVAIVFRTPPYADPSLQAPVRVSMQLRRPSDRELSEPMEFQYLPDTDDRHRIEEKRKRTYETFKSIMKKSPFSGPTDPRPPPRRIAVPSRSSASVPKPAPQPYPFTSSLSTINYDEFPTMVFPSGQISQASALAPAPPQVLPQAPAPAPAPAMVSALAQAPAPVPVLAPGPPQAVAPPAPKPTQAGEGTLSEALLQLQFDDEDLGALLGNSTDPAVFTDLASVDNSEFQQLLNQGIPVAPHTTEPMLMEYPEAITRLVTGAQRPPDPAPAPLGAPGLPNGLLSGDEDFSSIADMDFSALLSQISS
- PROTOCOL_TEXT: Inhibition of transcriptional activity of NF-kappaB (unknown origin) transfected in LPS-stimulated mouse RAW264.7 cells at 100 uM after 16 hrs by secretory alkaline phosphatase reporter gene assay relative to control
- Assay type: cell-based

INSERT INTO results (molecule, result) VALUES
  ('O=C(Nc1ccccc1C(F)(F)F)C1CCc2ccc3ccccc3c2O1 (stereo not drawn)', '> 100%'),
  ('O=C(Nc1ccc(Cl)cc1)C1CCc2ccc3ccccc3c2O1 (stereo not drawn)', '> 100%');

Consider the additional molecule presented here.
In: Report inhibition for O=C(Nc1ccc(O)cc1)C1CCc2ccc3ccccc3c2O1 (stereo not drawn)
Out: > 100%
